system.tested: human EP2 receptor (Homo sapiens, UniProt P43116)
Construct: expressed in transfected cells
Sequence (P43116 whole entry): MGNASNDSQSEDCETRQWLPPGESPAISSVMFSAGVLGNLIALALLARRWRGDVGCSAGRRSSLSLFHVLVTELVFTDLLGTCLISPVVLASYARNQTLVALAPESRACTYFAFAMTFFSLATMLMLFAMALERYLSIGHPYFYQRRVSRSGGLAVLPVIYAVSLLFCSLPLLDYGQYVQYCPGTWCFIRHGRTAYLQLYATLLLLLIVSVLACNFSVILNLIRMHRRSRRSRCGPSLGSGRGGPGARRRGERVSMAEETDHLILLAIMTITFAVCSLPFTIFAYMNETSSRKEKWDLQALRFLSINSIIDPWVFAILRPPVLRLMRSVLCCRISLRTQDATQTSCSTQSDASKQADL
method: Binding ability to human EP2 receptor ([3H]PGE2 displacement)
experimental.conditions: read-out: pKi EP2 (converted)
Each entry below carries its recorded Ki.

Cc1ccccc1S(=O)(=O)NC(=O)c1cc(CNc2ccc(-c3ccccc3)cc2)c(C)o1
> 10 µM
COc1ccc(-c2ccc(OCc3cc(C(=O)NS(=O)(=O)c4ccccc4)oc3C)cc2)cc1
> 3.16 µM

IN: Give the measured Ki of "O=C(O)c1cc(COc2ccc3oc4ccccc4c3c2)c(C(F)(F)F)o1" .
OUT: > 10 µM

IN: Now the same for "Cc1oc(C(=O)O)cc1CSc1ccc(-c2ccc(OC(F)F)cc2)cc1"
OUT: > 10 µM

IN: Now the same for "Cc1oc(C(=O)O)cc1CN(C)c1ccc(-c2ccc(OC(F)F)cc2)cc1"
OUT: > 10 µM

IN: Now the same for "Cc1oc(C(=O)NS(=O)(=O)c2ccccc2)cc1COc1ccc(-c2ncccn2)cc1"
OUT: > 10 µM

IN: Now the same for "Cc1oc(/C=C/C(=O)O)cc1COc1ccc(-c2ccccc2)cc1"
OUT: > 10 µM

IN: Now the same for "Cc1oc(C(=O)O)cc1COc1ccc2c(c1)oc1ccccc12"
OUT: > 3.16 µM

IN: Now the same for "Cc1oc(C(=O)O)cc1COc1ccc(-c2ccc(CO)cc2)cc1"
OUT: > 10 µM

IN: Now the same for "Cc1oc(C(=O)O)cc1COc1ccc(-c2ccc(F)cc2)cc1"
OUT: > 10 µM

---

system.tested: human EP4 receptor (Homo sapiens)
Construct: expressed in transfected cells
Sequence (P35408 whole entry): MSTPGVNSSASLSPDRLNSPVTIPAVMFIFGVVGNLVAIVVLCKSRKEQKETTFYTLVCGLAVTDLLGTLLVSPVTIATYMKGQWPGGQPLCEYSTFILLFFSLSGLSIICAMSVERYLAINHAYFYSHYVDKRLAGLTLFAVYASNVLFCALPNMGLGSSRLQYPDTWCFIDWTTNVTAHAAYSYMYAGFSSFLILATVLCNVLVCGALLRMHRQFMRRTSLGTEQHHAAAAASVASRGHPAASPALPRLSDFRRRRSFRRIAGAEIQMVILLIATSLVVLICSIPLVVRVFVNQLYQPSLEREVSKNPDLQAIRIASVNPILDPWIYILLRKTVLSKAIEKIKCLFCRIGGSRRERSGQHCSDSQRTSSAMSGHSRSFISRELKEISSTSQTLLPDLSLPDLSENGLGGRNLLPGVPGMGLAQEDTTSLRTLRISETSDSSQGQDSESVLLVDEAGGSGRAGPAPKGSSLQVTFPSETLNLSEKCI
method: Binding ability to human EP4 receptor ([3H]PGE2 displacement)
experimental.conditions: read-out: pKi EP4 (converted)
Each entry below carries its recorded Ki.

O=C(O)c1cc(COc2ccc3oc4ccccc4c3c2)c(C(F)(F)F)o1 [Compound 92]
< 3160 nM
Cc1oc(S(=O)(=O)NC(=O)c2cccs2)cc1COc1ccc(-c2ccccc2)cc1 [Compound 64]
< 100 nM
Cc1oc(C(=O)O)cc1COc1ccc(-c2ccccc2C(F)(F)F)cc1 [Compound 102]
< 3160 nM

# ---- query molecule ----
IN: Give the measured Ki of COc1ccc(-c2ccc(NCc3cc(C(=O)NS(=O)(=O)c4ccccc4C)oc3C)cc2)nc1 [Compound 167] .
OUT: < 316 nM

---

Each entry below carries its recorded Ki.
system.tested: human EP2 receptor (Homo sapiens, UniProt P43116)
Construct: expressed in transfected cells
method: Binding ability to human EP2 receptor ([3H]PGE2 displacement)
experimental.conditions: read-out: pKi EP2 (converted)

Here is how some compounds turned out for Ki.
COc1ccc(-c2ccc(OCc3cc(C(=O)NS(=O)(=O)c4ccccc4)oc3C)cc2)[n+]([O-])c1
> 10 µM
Cc1oc(CCC(=O)NS(=O)(=O)c2ccccc2)cc1COc1ccc(-c2ccccc2)cc1
> 3.16 µM
Cc1oc(C(=O)O)cc1COc1ccc(-c2ccccc2Cl)cc1
> 3.16 µM
COc1ccc(-c2ccc(OCc3cc(C(=O)O)oc3C)cc2)cc1
> 10 µM

IN: Give the measured Ki of "Cc1oc(C(=O)O)cc1COc1ccc(-c2ccc(OC(F)(F)F)cc2)cc1" .
OUT: > 10 µM

IN: Now the same for "Cc1noc(C)c1S(=O)(=O)NC(=O)c1cc(COc2ccc(-c3ccc(OC(F)F)cc3)cc2)c(C)o1"
OUT: > 3.16 µM

IN: Now the same for "Cc1oc(C(=O)NS(=O)(=O)c2ccccc2)cc1CSc1ccc(-c2ccc(OC(F)F)cc2)cc1"
OUT: > 3.16 µM

IN: Now the same for "Cc1oc(C(=O)O)cc1COc1ccc(-c2ccc(N(C)C)cc2)cc1"
OUT: > 10 µM
